Values were extracted from patent US20070105826A1.

- Tested on: Streptococcus pyogenes DA7864
- METHOD: MIC (Minimum Inhibitory Concentration) determination, broth dilution in 96-well plates
- Format: cell-based
- CONDITION: TH broth, aerobic, 37° C., 24 h; cells at t = 0 ˜10^6/ml
ASSAY ENDPOINT: Antibacterial activity, MIC, Strep. pyogenes DA7864 (µg/mL)
Write down the numeric answer in µg/mL and omit the unit.

Completed entries (count: 4):
COMPOUND	UNIT TEXT	MEAS VALUE
CC(=O)O[C@H]1C[C@@]2(C)[C@@H](C[C@@H](O)[C@H]3[C@@]4(C)CC[C@@H](O)[C@@H](C)[C@@H]4CC[C@@]32C)[C@]12C[C@]2(CCC=C(C)C)C(=O)O [Ref. comp. 206, 17S,20S-Methylene-fusidic acid]	µg/mL	28
CC(=O)OC1CC2(C)C(CC(O)C3C4(C)CCC(O)C(C)C4CCC32C)C1C(CCC=C(C)C)C(=O)O (stereo not drawn) [Ref. comp. 205, 17S,20S-Dihydrofusidic acid]	µg/mL	28
CCO[C@H]1C[C@@]2(C)[C@@H](C[C@@H](O)[C@H]3[C@@]4(C)CC[C@@H](O)[C@@H](C)[C@@H]4CC[C@@]32C)/C1=C(\CCC=C(C)C)C(=O)O	µg/mL	14
CC(=O)O[C@H]1C[C@@]2(C)[C@@H](C[C@@H](O)[C@H]3[C@@]4(C)CC[C@@H](O)[C@@H](C)[C@@H]4CC[C@@]32C)/C1=C(\CCC(Br)=C(C)C)C(=O)O	µg/mL	0.8

Okay, next one:
Notebook: CC(C)=CCC/C(C(=O)O)=C1/[C@@H]([S+]([O-])C(C)C)C[C@@]2(C)[C@H]1C[C@@H](O)[C@H]1[C@@]3(C)CC[C@@H](O)[C@@H](C)[C@@H]3CC[C@@]12C (some centres unmarked) , Antibacterial activity, MIC, Strep. pyogenes DA7864 read as 1.6
